system: Hepatitis C virus NS3 helicase; experiment: inhibitors of HCV NS3 helicase, primary screen, biochemical, Cy5 molecular beacon fluorescence (AID 1800); conditions: NS3 helicase DNA unwinding, at 10.9 µM, stronger effect = higher value;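 note: 0% = DMSO wells and 100% = thioflavine S control wells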
Screen size: about 290,000 compounds; about 1,600 (0.55%) were called active. This is one part of a sample in which actives are shown more often than they occur.
Catalogue of molecules with associated inhibition
Form entry: value (%) — number only.

{"Molecule": "Fc1ccc(-c2ccc(-c3nn4c(-c5ccco5)nnc4s3)o2)cc1", "Target entity": "Hepatitis C virus NS3 helicase", "inhibition / %": 40.9}
{"Molecule": "COC(=O)c1cnn2c(C(F)(F)F)cc(-c3ccco3)nc12", "Target entity": "Hepatitis C virus NS3 helicase", "inhibition / %": 18.2}
{"Molecule": "Cc1ccc(C(=O)O)cc1-c1ccc(/C=C2\\SC(=O)N(CC(=O)Nc3ccc4c(c3)OCO4)C2=O)o1", "Target entity": "Hepatitis C virus NS3 helicase", "inhibition / %": 46.3}

API: value(readout=inhibition, system=Hepatitis C virus NS3 helicase) for record COCn1c(C(O)c2ccccc2)cc2ccccc21 (configuration not stated)
-4.17

API: value(readout=inhibition, system=Hepatitis C virus NS3 helicase) for record COC(=O)CN1C(=O)C(O)=C(C(C)=O)C1c1ccc([N+](=O)[O-])cc1 (configuration not stated)
-0.09

API: value(readout=inhibition, system=Hepatitis C virus NS3 helicase) for record COc1cccc(NC(=O)CSc2nnc(Cc3ccc(OC)c(OC)c3)o2)c1
-10.1

API: value(readout=inhibition, system=Hepatitis C virus NS3 helicase) for record CCCCn1c(O)c(N=NC(=O)Cn2c(C(F)(F)F)nc3ccccc32)c2ccccc21
0.68

API: value(readout=inhibition, system=Hepatitis C virus NS3 helicase) for record O=C(c1cccc(-n2cccc2)c1)N1CCN(S(=O)(=O)c2ccc(F)cc2)CC1
77

API: value(readout=inhibition, system=Hepatitis C virus NS3 helicase) for record CNc1nnc(-c2ccco2)s1
-1.81

API: value(readout=inhibition, system=Hepatitis C virus NS3 helicase) for record COc1cc2c(cc1OC)C(c1ccccc1Br)NC(=O)C2 (configuration not stated)
1.43

API: value(readout=inhibition, system=Hepatitis C virus NS3 helicase) for record Cc1cccc(NC(=O)c2sc3nc(N4CCOCC4)c4c(c3c2N)CCCC4)c1
18.7

API: value(readout=inhibition, system=Hepatitis C virus NS3 helicase) for record O=C(COc1ccc2c(c1)CCC2)N1CCN(c2ccc(F)cc2)CC1
-11.2

API: value(readout=inhibition, system=Hepatitis C virus NS3 helicase) for record Brc1ccccc1C1Nc2cccc3cccc(c23)N1
53.8

API: value(readout=inhibition, system=Hepatitis C virus NS3 helicase) for record O=C(N/N=C/c1cc(Cl)cc([N+](=O)[O-])c1O)C(O)(c1ccccc1)c1ccccc1
24.1

API: value(readout=inhibition, system=Hepatitis C virus NS3 helicase) for record Cn1ncc2c(N3CCCCC3)nc(NCCCO)nc21
5.11

API: value(readout=inhibition, system=Hepatitis C virus NS3 helicase) for record Cc1ccc(-c2ccc(/C=N/NC(=O)CN3CCOCC3)o2)cc1[N+](=O)[O-]
6.31

API: value(readout=inhibition, system=Hepatitis C virus NS3 helicase) for record Cc1ccc(C)c(S(=O)(=O)N2CCCOC2CNC(=O)C(=O)NC2CCCCC2)c1 (configuration not stated)
8.68

API: value(readout=inhibition, system=Hepatitis C virus NS3 helicase) for record CC(=O)C1=C(O)C(=O)N(c2ccc(Br)cc2)C1c1ccc([N+](=O)[O-])cc1 (configuration not stated)
36

API: value(readout=inhibition, system=Hepatitis C virus NS3 helicase) for record COc1cc(-c2nn3c(-c4cccc(C)c4)nnc3s2)cc(OC)c1OC
12.9

API: value(readout=inhibition, system=Hepatitis C virus NS3 helicase) for record COc1ccc(NC(=O)CCN2C(=O)/C(=C/c3ccc4c(c3)OCO4)SC2=S)cc1
-4.44

API: value(readout=inhibition, system=Hepatitis C virus NS3 helicase) for record Cc1ccccc1CCNC(=O)C1CCC(=O)N(Cc2ccc(Cl)cc2)C1 (configuration not stated)
-13.2

API: value(readout=inhibition, system=Hepatitis C virus NS3 helicase) for record O=C(O)CCCC(=O)N1N=C(c2ccco2)CC1c1ccco1 (configuration not stated)
1.26

API: value(readout=inhibition, system=Hepatitis C virus NS3 helicase) for record O=C(c1cnc(Cl)c(Cl)c1)N1CCN(S(=O)(=O)c2ccc(F)cc2)CC1
5.16

API: value(readout=inhibition, system=Hepatitis C virus NS3 helicase) for record O=C1NN(c2ccccc2)C(=O)/C1=C/c1ccc(-c2cccc(C(=O)O)c2)o1
54.3

API: value(readout=inhibition, system=Hepatitis C virus NS3 helicase) for record CCSc1nsc(NC(=O)Nc2ccccc2OC)n1
-3.36

API: value(readout=inhibition, system=Hepatitis C virus NS3 helicase) for record CCSc1nsc(NC(=O)Nc2cccc(C(C)=O)c2)n1
38.8

API: value(readout=inhibition, system=Hepatitis C virus NS3 helicase) for record COc1ccc(C(=O)N(C)CC(O)c2ccccc2)cc1OC1CCN(C(C)=O)CC1 (configuration not stated)
32.3

API: value(readout=inhibition, system=Hepatitis C virus NS3 helicase) for record O=C(OCC1O[C@@H](OC(=O)c2cc(O)c(O)c(O)c2)[C@@H](OC(=O)c2cc(O)c(O)c(O)c2)[C@@H](OC(=O)c2cc(O)c(O)c(O)c2)[C@@H]1OC(=O)c1cc(O)c(O)c(O)c1)c1cc(O)c(O)c(O)c1 (some centres not stated)
63.6

###

tested on: Hepatitis C virus NS3 helicase; assay: inhibitors of HCV NS3 helicase, primary screen, biochemical, Cy5 molecular beacon fluorescence (AID 1800); details: NS3 helicase DNA unwinding, at 10.9 µM;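 note: 0% = DMSO wells and 100% = thioflavine S control wells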
In all, about 290,000 compounds went through this assay and about 1,600 (0.55%) were called active.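 How the source made its calls: active means inhibition above the mean of all tested compounds plus 3 SD, set per campaign (cut at about 35% in these data); inactive means the rest.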 The full list was thinned out, with actives kept by preference.
Response enum: active, inactive

{"Smiles": "CS(=O)(=O)C1=NN2C(=N)/C(=C\\c3ccc(OCCOc4ccccc4)cc3)C(=O)N=C2S1", "Class assignment": "inactive"}
{"Smiles": "Cc1cc(/C=C2/C(=N)N3C(=NC2=O)SN=C3S(C)(=O)=O)c(C)n1-c1ccccc1", "Class assignment": "inactive"}
{"Smiles": "Nc1ccc2nc3c(=O)[nH]c(=S)[nH]c3nc2c1", "Class assignment": "active"}
{"Smiles": "NC(=O)c1sc2nc3c(c(-c4ccccc4)c2c1N)CCC3", "Class assignment": "inactive"}
{"Smiles": "COc1ccccc1-n1c(SCC(=O)O)nc2sc3c(c2c1=O)CCC3", "Class assignment": "inactive"}
{"Smiles": "CS(=O)(=O)c1ccc2c(c1)SC1=NC(=O)/C(=C/c3ccco3)C(=N)N12", "Class assignment": "active"}
{"Smiles": "Cc1ccc(C)c(-n2c(SCC(=O)O)nc3sc4c(c3c2=O)CCCC4)c1", "Class assignment": "active"}
{"Smiles": "COc1ccc(S(=O)(=O)N(C)CC(=O)N2CCCC2)cc1", "Class assignment": "inactive"}
{"Smiles": "CCSc1nc2sc3c(c2c(=O)n1-c1ccc(C)cc1)CCN(C)C3", "Class assignment": "inactive"}

# outcome recorded in this test, key = Cc1cc2nc3c(=O)n(Cc4ccccc4)c(=O)[nH]c3nc2cc1N
inactive

###

Catalogue of compounds with associated inhibition
tested on: Hepatitis C virus NS3 helicase; test: inhibitors of HCV NS3 helicase, primary screen, biochemical, Cy5 molecular beacon fluorescence (AID 1800); conditions: NS3 helicase DNA unwinding, at 10.9 µM, stronger effect = higher value;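 note: 0% = DMSO wells and 100% = thioflavine S control wells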
The whole screen tested about 290,000 compounds, of which about 1,600 (0.55%) were called active. The sample as a whole holds a higher share of actives than the screen did.
Form entry: value (%) — number only.

{"Compound": "Cc1ccc2nc(N3C(=O)C(O)=C(C(=O)c4ccco4)C3c3cccc(O)c3)sc2c1 (stereo unspecified)", "Target entity": "Hepatitis C virus NS3 helicase", "Measured endpoint": "inhibition", "Experimental value": 25.4}
{"Compound": "CCOC(=O)/C=c1\\s/c(=C\\c2ccc(C#N)cc2)c(=O)n1CC(=O)Nc1cccc(C)c1C", "Target entity": "Hepatitis C virus NS3 helicase", "Measured endpoint": "inhibition", "Experimental value": 12.5}
{"Compound": "COc1ccc(/C=C/C(=O)c2ccc(OC)cc2O)cc1", "Target entity": "Hepatitis C virus NS3 helicase", "Measured endpoint": "inhibition", "Experimental value": -6.12}
{"Compound": "COc1ccc(/C=C/C(=O)c2cc(Br)ccc(=O)c2O)cc1", "Target entity": "Hepatitis C virus NS3 helicase", "Measured endpoint": "inhibition", "Experimental value": 45.2}
{"Compound": "Cc1ccc(S(=O)(=O)N/N=C\\c2cc3c(cc2[N+](=O)[O-])OCO3)cc1", "Target entity": "Hepatitis C virus NS3 helicase", "Measured endpoint": "inhibition", "Experimental value": 54.2}
{"Compound": "CC(OC(=O)c1ccccc1N1C(=O)C2C3CCC(C3)C2C1=O)C(=O)c1ccccc1 (stereo unspecified)", "Target entity": "Hepatitis C virus NS3 helicase", "Measured endpoint": "inhibition", "Experimental value": 1.1}

// query inhibition value for entry CCCN1CCn2c3c(c4cc(Br)ccc42)CCCC31 (stereo unspecified)
-17.6

// query inhibition value for entry Cc1ccc(C(c2nnnn2CS(=O)(=O)c2ccc(C)cc2)N2CCC(C)CC2)cc1 (stereo unspecified)
-6.3

// query inhibition value for entry CC(=O)N/N=C/c1cc2c(cc1[N+](=O)[O-])OCO2
3.66

// query inhibition value for entry COCCN1CCn2c(nc3cc(NS(C)(=O)=O)ccc32)C1
-2.65

// query inhibition value for entry CCNC(=O)CC1C(=O)N(c2ccc(OC)cc2)C(=O)N1CCOC (stereo unspecified)
1.88

// query inhibition value for entry Cc1ccc(-c2n[nH]c(=S)n2/N=C/c2cc3c(cc2[N+](=O)[O-])OCO3)cc1
8.58

// query inhibition value for entry COc1ccc(/C=C2\SC(=S)N(CCC(=O)Nc3ccccn3)C2=O)cc1OC
-1.07

// query inhibition value for entry Cc1ccc(S(=O)(=O)NCCC(=O)Nc2cccc(S(N)(=O)=O)c2)cc1C
-12.2

// query inhibition value for entry CCc1ccc(NC(=O)Nc2ccncc2)cc1
-8.08
